Each recorded value in this set is attributed to patent US12012417B2.

I'd be grateful if you could share measured pEC50 for these entries.
system: Dengue 4 virus MY01-22713; assay: High-content imaging cell-based flavivirus immunodetection (HCl-CFI) assay, Dengue 4; settings: Dengue virus, A549, 48 h, read-out: Dengue 4 virus MY01-22713 in A549 using HCl [Inhibitor/IC50] Qualified AC50, A549 cells, 48 h, viral E protein expression
pEC50: −log10 of the molar value.

Below, 5 compounds whose answers are already recorded.
Compound: Cc1cccc(CN2CCc3c(sc(NC(=O)Cc4ccc(S(N)(=O)=O)cc4)c3C#N)C2)c1 [Example 102]
Target: Dengue 4 virus MY01-22713
pEC50: 6.00 to 7.00
//
Compound: COc1cc(C#N)cc(CC(=O)Nc2sc3c(c2C#N)CN(Cc2cccc(F)c2)CC3)c1 [Example 38]
Target: Dengue 4 virus MY01-22713
pEC50: 6.00 to 7.00
//
Compound: CCC1(CC)Cc2sc(NC(=O)Cc3ccc(S(N)(=O)=O)cc3)c(C#N)c2CN1CC1CC(F)(F)C1 [Example 79]
Target: Dengue 4 virus MY01-22713
pEC50: > 7.00
//
Compound: COCCOc1cc(CC(=O)Nc2sc3c(c2C#N)CN(Cc2cccc(F)c2)C(C)C3)ccc1S(N)(=O)=O (stereo not shown) [Example 86]
Target: Dengue 4 virus MY01-22713
pEC50: > 7.00
//
Compound: CC1Cc2sc(NC(=O)Cc3ccc(S(=O)(=O)NCC4CCCC4)cc3)c(C#N)c2CN1CC1CCCC1 (stereo not shown) [Example 61]
Target: Dengue 4 virus MY01-22713
pEC50: < 6.00

For every item below, please supply its pEC50.
1. COc1cc(CC(=O)Nc2sc3c(c2C#N)CN(CC2CCCCC2)CC3)ccc1S(N)(=O)=O [Example 7]
2. COc1cc(S(N)(=O)=O)ccc1CC(=O)Nc1sc2c(c1C#N)CN(Cc1cccc(F)c1)CC2 [Example 24]

RESULT:
> 7.00
6.00 to 7.00
